tested on: Mus musculus; test: Toxicity in mouse S180 cells allografted mouse assessed as kidney weight at 1 umol/kg, ip for 7 consecutive days measured 24 hrs after last dose (reference value: 0.16 +/- 0.04 g); type: organism-based, CCRF S-180; conditions: in vivo
Structures can show the parent of a compound that is named as a salt.
QUANTITY NAME: Activity (g)
One number for each entry, in g.

In the examples that follow, each entry is paired with its recorded Activity.
Per the reported Mus musculus data, CC(C)[C@H](NC(=O)[C@H](Cc1c[nH]c2ccccc12)NC(=O)[C@H](Cc1c[nH]c2ccccc12)NC(=O)c1cc2ccc(O)cc2oc1=O)C(=O)OCc1ccccc1 has Activity of 0.16

The measured Activity that O=C(C[C@H](NC(=O)[C@H](Cc1c[nH]c2ccccc12)NC(=O)[C@H](Cc1c[nH]c2ccccc12)NC(=O)c1cc2ccc(O)cc2oc1=O)C(=O)OCc1ccccc1)OCc1ccccc1 showed for Mus musculus is 0.16

Turning now to a further compound:
Reported Activity (Mus musculus) for entry COc1cccc2c1C(=O)c1c(O)c3c(c(O)c1C2=O)C[C@@](O)(C(=O)CO)C[C@@H]3O[C@H]1C[C@H](N)[C@H](O)[C@H](C)O1 [DOXORUBICIN HYDROCHLORIDE] is 0.16

====

test system: Mus musculus; test: Toxicity in mouse S180 cells allografted mouse assessed as spleen index at 1 umol/kg, ip for 7 consecutive days measured 24 hrs after last dose (reference value: 7.25 +/- 1.60); assay type: organism-based, CCRF S-180; conditions: in vivo
QUANTITY NAME: Activity_index
Give bare numbers.

Tested system Mus musculus; Activity_index recorded for O=C(CNC(=O)[C@H](Cc1c[nH]c2ccccc12)NC(=O)[C@H](Cc1c[nH]c2ccccc12)NC(=O)c1cc2ccc(O)cc2oc1=O)OCc1ccccc1 was 7.92

Here O=C(N[C@@H](Cc1c[nH]c2ccccc12)C(=O)N[C@@H](Cc1c[nH]c2ccccc12)C(=O)N[C@@H](Cc1ccc(O)cc1)C(=O)OCc1ccccc1)c1cc2ccc(O)cc2oc1=O was tested on Mus musculus, and its Activity_index came to 7.12

Now consider the entry below.
Readout Activity_index for O=C(N[C@@H](Cc1c[nH]c2ccccc12)C(=O)N[C@@H](Cc1c[nH]c2ccccc12)C(=O)N1CCC[C@H]1C(=O)OCc1ccccc1)c1cc2ccc(O)cc2oc1=O , test system Mus musculus, was 4.67

====

test system: Mus musculus; assay: Toxicity in mouse S180 cells allografted mouse assessed as spleen index at 1 umol/kg, ip for 7 consecutive days measured 24 hrs after last dose (reference value: 7.25 +/- 1.60); type: organism-based, CCRF S-180; details: in vivo
Kindly supply the reported Activity_index values for the records listed here.

Hi! Can you tell me Activity_index for each of these compounds?
1. O=C(C[C@H](NC(=O)[C@H](Cc1c[nH]c2ccccc12)NC(=O)[C@H](Cc1c[nH]c2ccccc12)NC(=O)c1cc2ccc(O)cc2oc1=O)C(=O)OCc1ccccc1)OCc1ccccc1
2. O=C(N[C@@H](Cc1c[nH]c2ccccc12)C(=O)N[C@@H](Cc1c[nH]c2ccccc12)C(=O)N[C@@H](Cc1c[nH]c2ccccc12)C(=O)OCc1ccccc1)c1cc2ccc(O)cc2oc1=O
3. O=C(N[C@@H](Cc1c[nH]c2ccccc12)C(=O)N[C@@H](Cc1c[nH]c2ccccc12)C(=O)N[C@@H](Cc1ccccc1)C(=O)OCc1ccccc1)c1cc2ccc(O)cc2oc1=O

Output:
1. 5.92
2. 6.93
3. 8.69

I need Activity_index for every entry listed below, if you could help.
1. CC[C@H](C)[C@H](NC(=O)[C@H](Cc1c[nH]c2ccccc12)NC(=O)[C@H](Cc1c[nH]c2ccccc12)NC(=O)c1cc2ccc(O)cc2oc1=O)C(=O)OCc1ccccc1
2. O=C(N[C@@H](Cc1c[nH]c2ccccc12)C(=O)N[C@@H](Cc1c[nH]c2ccccc12)C(=O)OCc1ccccc1)c1cc2ccc(O)cc2oc1=O

Output:
7.94
7.72

====

test system: Mus musculus; assay: Toxicity in mouse S180 cells allografted mouse assessed as liver weight at 1 umol/kg, ip for 7 consecutive days measured 24 hrs after last dose (reference value: 1.84 +/- 0.32 g); assay type: organism-based, CCRF S-180; conditions: in vivo
Counter-ions that a name gives are not always drawn.
Field: Activity. Provide a value for each of the compounds that follow.
Give bare numbers, in g.

Test item O=C(CC[C@H](NC(=O)[C@H](Cc1c[nH]c2ccccc12)NC(=O)[C@H](Cc1c[nH]c2ccccc12)NC(=O)c1cc2ccc(O)cc2oc1=O)C(=O)OCc1ccccc1)OCc1ccccc1 ; Mus musculus; reported Activity was 1.85

Tested on Mus musculus: C[C@@H](O)[C@H](NC(=O)[C@H](Cc1c[nH]c2ccccc12)NC(=O)[C@H](Cc1c[nH]c2ccccc12)NC(=O)c1cc2ccc(O)cc2oc1=O)C(=O)OCc1ccccc1 . Observed Activity: 1.82

The compound O=C(N[C@@H](Cc1c[nH]c2ccccc12)C(=O)N[C@@H](Cc1c[nH]c2ccccc12)C(=O)N[C@@H](Cc1ccc(O)cc1)C(=O)OCc1ccccc1)c1cc2ccc(O)cc2oc1=O on Mus musculus: Activity was 1.76

Here O=C(O)c1cc2ccc(O)cc2oc1=O was tested on Mus musculus, and its Activity came to 1.81

Recorded Activity for O=C(C[C@H](NC(=O)[C@H](Cc1c[nH]c2ccccc12)NC(=O)[C@H](Cc1c[nH]c2ccccc12)NC(=O)c1cc2ccc(O)cc2oc1=O)C(=O)OCc1ccccc1)OCc1ccccc1 on Mus musculus was 1.61

I'm hoping you can list Activity for every compound here, please.
1. O=C(N[C@@H](Cc1c[nH]c2ccccc12)C(=O)N[C@@H](Cc1c[nH]c2ccccc12)C(=O)N[C@@H](Cc1c[nH]c2ccccc12)C(=O)OCc1ccccc1)c1cc2ccc(O)cc2oc1=O
2. O=C(N[C@@H](Cc1c[nH]c2ccccc12)C(=O)N[C@@H](Cc1c[nH]c2ccccc12)C(=O)N[C@@H](Cc1ccccc1)C(=O)OCc1ccccc1)c1cc2ccc(O)cc2oc1=O
3. O=C(CNC(=O)[C@H](Cc1c[nH]c2ccccc12)NC(=O)[C@H](Cc1c[nH]c2ccccc12)NC(=O)c1cc2ccc(O)cc2oc1=O)OCc1ccccc1
4. CC(C)[C@H](NC(=O)[C@H](Cc1c[nH]c2ccccc12)NC(=O)[C@H](Cc1c[nH]c2ccccc12)NC(=O)c1cc2ccc(O)cc2oc1=O)C(=O)OCc1ccccc1
5. COc1cccc2c1C(=O)c1c(O)c3c(c(O)c1C2=O)C[C@@](O)(C(=O)CO)C[C@@H]3O[C@H]1C[C@H](N)[C@H](O)[C@H](C)O1 [DOXORUBICIN HYDROCHLORIDE]
6. CC[C@H](C)[C@H](NC(=O)[C@H](Cc1c[nH]c2ccccc12)NC(=O)[C@H](Cc1c[nH]c2ccccc12)NC(=O)c1cc2ccc(O)cc2oc1=O)C(=O)OCc1ccccc1
7. CC(C)C[C@H](NC(=O)[C@H](Cc1c[nH]c2ccccc12)NC(=O)[C@H](Cc1c[nH]c2ccccc12)NC(=O)c1cc2ccc(O)cc2oc1=O)C(=O)OCc1ccccc1

Output:
1.8
1.78
1.86
1.78
1.6
1.78
1.6

====

test system: Mus musculus; assay: Toxicity in mouse S180 cells allografted mouse assessed as brain weight at 1 umol/kg, ip for 7 consecutive days measured 24 hrs after last dose (reference value: 0.30 +/- 0.02 g); assay type: organism-based, CCRF S-180; conditions: in vivo
QUANTITY NAME: Activity (g)
Give bare numbers, in g.

compound O=C(C[C@H](NC(=O)[C@H](Cc1c[nH]c2ccccc12)NC(=O)[C@H](Cc1c[nH]c2ccccc12)NC(=O)c1cc2ccc(O)cc2oc1=O)C(=O)OCc1ccccc1)OCc1ccccc1 , Activity observed: 0.31

# return Activity for each item in the list
1. O=C(N[C@@H](Cc1c[nH]c2ccccc12)C(=O)N[C@@H](Cc1c[nH]c2ccccc12)C(=O)OCc1ccccc1)c1cc2ccc(O)cc2oc1=O
2. O=C(N[C@@H](Cc1c[nH]c2ccccc12)C(=O)N[C@@H](Cc1c[nH]c2ccccc12)C(=O)N1CCC[C@H]1C(=O)OCc1ccccc1)c1cc2ccc(O)cc2oc1=O
3. O=C(N[C@@H](Cc1c[nH]c2ccccc12)C(=O)N[C@@H](Cc1c[nH]c2ccccc12)C(=O)N[C@@H](CO)C(=O)OCc1ccccc1)c1cc2ccc(O)cc2oc1=O

Output:
1: 0.28; 2: 0.24; 3: 0.26

Required: Activity, one value per compound below.
1. O=C(CC[C@H](NC(=O)[C@H](Cc1c[nH]c2ccccc12)NC(=O)[C@H](Cc1c[nH]c2ccccc12)NC(=O)c1cc2ccc(O)cc2oc1=O)C(=O)OCc1ccccc1)OCc1ccccc1
2. O=C(O)c1cc2ccc(O)cc2oc1=O

Output:
1: 0.26; 2: 0.29

Data provenance: ChEMBL document CHEMBL3351705
